Measured CC50 at 48 h, listed per entry.
# protocolSummary: Cytotoxicity against African green monkey Vero cells assessed as growth inhibition after 2 days by SRB assay
# Assay type: cell-based
# conditionsUsed: chlorocebus sabaeus

[[record]]
compound = "COc1cc([C@@H](OC)[C@@H]2CO[C@H](c3ccc(O)c(OC)c3)[C@@H]2CO)ccc1O (relative stereo)"
measuredendpoint = "CC50 at 48 h"
observedresult = "> 50 µM"


We next turn to a different compound, shown below.
Ask: Kindly indicate its recorded CC50 at 48 h. Item: "CCOC(=O)/C=C/[C@H](C[C@@H]1CCNC1=O)NC(=O)[C@@H](CC(=O)[C@@H](NC(=O)c1cc(C)on1)C(C)C)Cc1ccc(F)cc1"
Result: > 50 µM

###

# protocolSummary: Selectivity index, ratio of CC50 for African green monkey Vero cells to IC50 for Coxsackievirus B3 infected in African green monkey Vero cells
# Type: toxicity
# conditionsUsed: read-out: Ratio CC50/IC50
Measured selectivity ratio, listed per entry.

[[record]]
compound = "COc1cc([C@@H](OC)[C@@H]2CO[C@H](c3ccc(O)c(OC)c3)[C@@H]2CO)ccc1O (relative stereo)"
measuredendpoint = "selectivity ratio"
observedresult = "> 3.2"


We next turn to a different compound, shown below.
Ask: Kindly indicate its recorded selectivity ratio. Item: "CCOC(=O)/C=C/[C@H](C[C@@H]1CCNC1=O)NC(=O)[C@@H](CC(=O)[C@@H](NC(=O)c1cc(C)on1)C(C)C)Cc1ccc(F)cc1"
Result: > 7.6
